Cited source for all entries: patent US12595248B2

# Target System: PRMT5-MEP50 enzyme complex (Homo sapiens, UniProt O14744)
# Construct: Full-length (FL)-PRMT5-MEP50 enzyme complex (recombinant proteins from baculovirus-transfected Sf21 cells: FL-PRMT5; MW=73837 kDa and FL-MEP50; MW=38614); made in house; host or cells: baculovirus-transfected Sf21 cells
# Sequence (O14744 whole entry): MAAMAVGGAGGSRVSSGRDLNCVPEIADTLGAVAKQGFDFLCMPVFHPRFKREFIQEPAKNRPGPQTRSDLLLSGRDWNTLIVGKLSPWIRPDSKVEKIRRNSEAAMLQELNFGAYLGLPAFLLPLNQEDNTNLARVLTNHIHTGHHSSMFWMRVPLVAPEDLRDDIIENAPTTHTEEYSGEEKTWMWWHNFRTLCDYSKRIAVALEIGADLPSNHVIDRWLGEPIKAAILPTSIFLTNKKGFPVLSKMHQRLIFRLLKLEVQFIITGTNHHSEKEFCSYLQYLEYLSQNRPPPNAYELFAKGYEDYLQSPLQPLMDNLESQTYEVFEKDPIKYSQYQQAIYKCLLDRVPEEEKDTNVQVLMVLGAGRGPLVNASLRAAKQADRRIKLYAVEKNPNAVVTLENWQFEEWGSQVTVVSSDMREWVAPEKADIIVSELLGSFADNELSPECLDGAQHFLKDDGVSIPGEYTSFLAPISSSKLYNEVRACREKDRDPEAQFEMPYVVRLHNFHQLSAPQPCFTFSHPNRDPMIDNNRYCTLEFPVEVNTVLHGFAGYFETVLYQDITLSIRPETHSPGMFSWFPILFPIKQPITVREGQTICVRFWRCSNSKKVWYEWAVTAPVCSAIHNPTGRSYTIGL
# Sequence (Q9BQA1 whole entry partner): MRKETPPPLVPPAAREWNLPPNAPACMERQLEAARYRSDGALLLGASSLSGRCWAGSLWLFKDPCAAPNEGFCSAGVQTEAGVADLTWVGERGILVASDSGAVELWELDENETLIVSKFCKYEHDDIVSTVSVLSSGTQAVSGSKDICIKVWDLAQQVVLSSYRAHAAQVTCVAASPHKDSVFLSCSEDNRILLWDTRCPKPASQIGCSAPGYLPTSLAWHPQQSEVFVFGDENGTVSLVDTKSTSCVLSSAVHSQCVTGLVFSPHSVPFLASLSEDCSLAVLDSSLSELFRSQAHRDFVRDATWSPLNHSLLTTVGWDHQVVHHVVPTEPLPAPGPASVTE
# Assay Explanation: PRMT5-MEP50 Enzyme Methylation Assay (Version A)
# Type: biochemical
# Experimental Parameters: only one EC50 shown: 4 parameters single site sigmoidal model; 60 min pre-incubation with SAM; read-out: Enzyme Methylation Assay Version A (EC50)
Doc: threshold 2 nM (exclusive). Items with EC50 beneath it return fulfilled; others return not fulfilled.

- Compound: "O=C(c1cc(NC2CCN3C(=O)CCC3C2)ncc1F)N1CC[C@H](N2CCc3ccccc3C2)[C@@H](O)C1 (single isomer, unassigned) [Example 117]"
  Label Class: "fulfilled"
- Compound: "Cc1nc(C)c(-c2cnc3nc(C(=O)N4CC[C@H](N5CCc6ccccc6C5)[C@@H](O)C4)cn3c2)s1 [Example 56]"
  Label Class: "fulfilled"
- Compound: "Cc1cc(Br)cn2cc(C(=O)N3CC[C@H](N4CCc5ccccc5C4)[C@@H](O)C3)nc12 [Example 135]"
  Label Class: "fulfilled"
- Compound: "CC(=O)N1CCC(Nc2nccc(C(=O)N3CC[C@@H](N4CCc5ccccc5C4)[C@H](O)C3)c2F)CC1 [Example 19]"
  Label Class: "not fulfilled"
- Compound: "O=C(c1cn2cc(Br)cc(Br)c2n1)N1CC[C@H](N2CCc3ccccc3C2)[C@@H](O)C1 [Example 142]"
  Label Class: "fulfilled"
- Compound: "CCC(=O)N1CCC(Nc2cc(C(=O)N3CC[C@H](N4CCc5ccccc5C4)[C@@H](O)C3)c(F)cn2)CC1 [Example 111]"
  Label Class: "fulfilled"

* * *

Here the recorded EC50 is given for each entry.
# Target System: PRMT5-MEP50 enzyme complex (Homo sapiens)
# Construct: Full-length (FL)-PRMT5-MEP50 enzyme complex (recombinant proteins from baculovirus-transfected Sf21 cells: FL-PRMT5; MW=73837 kDa and FL-MEP50; MW=38614); made in house; host or cells: baculovirus-transfected Sf21 cells
# Assay Explanation: PRMT5-MEP50 Enzyme Methylation Assay (Version B)
# Format: biochemical
# Experimental Parameters: first of two EC50s: 7 parameters biphasic model; read-out: Enzyme Methylation Assay Version B (EC50_1)

- Molecule: "CC(=O)N1CCC(Nc2cc(C(=O)N3CC[C@@H](N4CCc5ccccc5C4)[C@H](O)C3)ccn2)C(F)(F)C1 (single isomer, unassigned) [Example 9]"
  EC50 (nM): 61
- Molecule: "O=C(c1ccc(C(=O)N2C3CCC2COC3)cc1)N1CC[C@H](N2CCc3ccccc3C2)[C@@H](O)C1 [Example 35]"
  EC50 (nM): 6.6
- Molecule: "CC(=O)N1CCC(Nc2cc(C(=O)N3CCC(N4CCc5ccccc5C4)C(O)C3C)ccn2)CC1 (single isomer, unassigned) [Example 20]"
  EC50 (nM): 4.4
- Molecule: "CCOC(=O)N1CCC(Nc2cc(C(=O)N3CC[C@H](N4CCc5ccccc5C4)[C@@H](O)C3)c(F)cn2)CC1 [Example 106]"
  EC50 (nM): 1.9
- Molecule: "CC(=O)N1CCC(Nc2cc(C(=O)N3CC[C@H](N4CCc5ccccc5C4)[C@@H](O)C3)ccn2)C(F)(F)C1 (single isomer, unassigned) [Example 6]"
  EC50 (nM): 4.8
- Molecule: "CC(=O)N1CCC(Nc2cc(C(=O)N3CCC(N4Cc5ccccc5C(F)(F)C4)C(O)C3)c(Cl)cn2)CC1 (single isomer, unassigned) [Example 28]"
  EC50 (nM): 1270
- Molecule: "CCC1Oc2ccc(C(=O)N3CC[C@H](N4CCc5ccccc5C4)[C@@H](O)C3)cc2NC1=O (single isomer, unassigned) [Example 11]"
  EC50 (nM): 1.8
- Molecule: "O=C(c1ccc(C(=O)N2C3CCC2COC3)cc1)N1CC[C@@H](N2CCc3cc(F)ccc3C2)[C@H](O)C1 [Example 40]"
  EC50 (nM): 45100
- Molecule: "CC(=O)N1CCC(Nc2nccc(C(=O)N3CC[C@@H](N4CCc5ccccc5C4)[C@H](O)C3)c2F)C(F)(F)C1 (single isomer, unassigned) [Example 16]"
  EC50 (nM): 160

* * *

# Target System: PRMT5 (Homo sapiens, UniProt O14744)
# Construct: seeded with 4000 MCF-7 cells in 30 μl media; endogenous in cells
# Sequence (O14744 whole entry): as the sequence (O14744 whole entry) above
# Sequence (Q9BQA1 whole entry partner): as the sequence (Q9BQA1 whole entry partner) above
# Assay Explanation: PRMT5 Cell Target Engagement (TE) Assay
# Experimental Parameters: MCF-7 cells, treated for 3 days, symmetric dimethylation of arginine (SDMA) by high content imaging
# Text: PRMT5 Cell Target Engagement (TE) Assay The PRMT5 TE assay is a biomarker assay for identifying compounds that inhibit symmetric dimethylation of arginine (SDMA) of PRMT5 substrates. The following substrates have been reported for PRMT5: histone H2A and H4 R3, Histone H3 R2, Histone H3 R8, spliceosome Sm proteins, ribosomal protein RPS10, p53, FEN1, nucleoplasmin, nucleolin, EGFR and EBNA. […]
Quick list: EC50 per entry.

- Compound: "O=C(c1ccc2c(c1)NCCN(CC(F)(F)F)C2=O)N1CC[C@H](N2CCc3ccccc3C2)[C@@H](O)C1 [Example 102]"
  Lt Gt Eq: "="
  EC50, nM: 10
- Compound: "CCC1Oc2ccc(C(=O)N3CC[C@@H](N4CCc5ccccc5C4)[C@H](O)C3)cc2NC1=O (single isomer, unassigned) [Example 13]"
  Lt Gt Eq: "="
  EC50, nM: 641
- Compound: "O=C(c1cn2cc(Br)cc(I)c2n1)N1CC[C@H](N2CCc3ccccc3C2)[C@@H](O)C1 [Example 139]"
  Lt Gt Eq: "="
  EC50, nM: 7.6
- Compound: "O=C(c1cn2c(n1)CCC(C(F)(F)F)C2)N1CC[C@H](N2CCc3ccccc3C2)[C@@H](O)C1 (single isomer, unassigned) [Example 82]"
  Lt Gt Eq: "="
  EC50, nM: 100
- Compound: "O=C(c1ccc(OCC(F)(F)F)nc1)N1CCC(N2Cc3ccccc3C(F)(F)C2)C(O)C1 (single isomer, unassigned) [Example 29]"
  Lt Gt Eq: ">"
  EC50, nM: 10000
- Compound: "CC1OC(=O)Nc2cc(C(=O)N3CC[C@H](N4CCc5ccccc5C4)[C@@H](O)C3)c(F)cc21 (single isomer, unassigned) [Example 99]"
  Lt Gt Eq: "="
  EC50, nM: 131
- Compound: "CC(=O)N1CCC(Nc2cc(C(=O)N3CC[C@@H](N4CCc5ccccc5C4)[C@H](O)C3)c(F)cn2)CC1 [Example 3]"
  Lt Gt Eq: "="
  EC50, nM: 3090
- Compound: "CC(=O)N1CCC(Nc2cc(C(=O)N3C[C@H]4C[C@@H]3C(O)C4N3CCc4ccccc4C3)c(F)cn2)CC1 (single isomer, unassigned) [Example 30]"
  Lt Gt Eq: ">"
  EC50, nM: 10000
- Compound: "CCOc1cnc(NC2CCN(C(C)=O)CC2)cc1C(=O)N1CC[C@H](N2CCc3ccccc3C2)[C@@H](O)C1 [Example 107]"
  Lt Gt Eq: "="
  EC50, nM: 7.9
- Compound: "O=C(c1cc2n(n1)CCN(CC(F)(F)F)C2)N1CC[C@H](N2CCc3ccccc3C2)[C@@H](O)C1 [Example 50]"
  Lt Gt Eq: "="
  EC50, nM: 4260
- Compound: "O=C(c1ccc(C(=O)N2C3CCC2COC3)cc1)N1CC[C@H](N2CCc3ccc(F)cc3C2)[C@@H](O)C1 [Example 41]"
  Lt Gt Eq: "="
  EC50, nM: 1490
- Compound: "CC(=O)N1CCC(Nc2nccc(C(=O)N3CC[C@H](N4CCc5ccccc5C4)[C@@H](O)C3)c2F)C(F)(F)C1 (single isomer, unassigned) [Example 14]"
  Lt Gt Eq: "="
  EC50, nM: 275
- Compound: "Cc1nc2ncc(C(=O)N3CC[C@H](N4CCc5ccccc5C4)[C@@H](O)C3)n2cc1Br [Example 75]"
  Lt Gt Eq: "="
  EC50, nM: 647

* * *

# Target System: PRMT5-MEP50 enzyme complex (Homo sapiens)
# Construct: Full-length (FL)-PRMT5-MEP50 enzyme complex (recombinant proteins from baculovirus-transfected Sf21 cells: FL-PRMT5; MW=73837 kDa and FL-MEP50; MW=38614); made in house; host or cells: baculovirus-transfected Sf21 cells
# Assay Explanation: PRMT5-MEP50 Enzyme Methylation Assay (Version B)
# Type: biochemical
# Experimental Parameters: first of two EC50s: 7 parameters biphasic model; read-out: Enzyme Methylation Assay Version B (EC50_1)
Mark each entry Criterion met if its EC50 sits below 5 nM, and Criterion not met for all others.

- Molecule: "O=C(c1ccc(C(=O)N2C3CCC2COC3)cc1)N1CC[C@H](N2CCc3cc(F)ccc3C2)[C@@H](O)C1 [Example 39]"
  Label Class: "Criterion not met"
- Molecule: "CS(=O)(=O)N1CCC(Nc2cc(C(=O)N3CC[C@H](N4CCc5ccccc5C4)[C@@H](O)C3)c(F)cn2)CC1 [Example 105]"
  Label Class: "Criterion met"
- Molecule: "CC1(C)OC(=O)Nc2cc(C(=O)N3CC[C@H](N4CCc5ccccc5C4)[C@@H](O)C3)ccc21 [Example 97]"
  Label Class: "Criterion not met"
- Molecule: "CC1OC(=O)Nc2cc(C(=O)N3CC[C@@H](N4CCc5ccccc5C4)[C@H](O)C3)ccc21 (single isomer, unassigned) [Example 92]"
  Label Class: "Criterion met"
- Molecule: "CC1OC(=O)Nc2cc(C(=O)N3CC[C@H](N4CCc5ccccc5C4)[C@@H](O)C3)c(F)cc21 (single isomer, unassigned) [Example 99]"
  Label Class: "Criterion not met"
- Molecule: "CC(=O)N1CCC(Nc2cc(C(=O)N3CC[C@H](N4CCc5ccccc5C4)[C@@H](O)C3)c(F)cn2)C(F)(F)C1 (single isomer, unassigned) [Example 87]"
  Label Class: "Criterion not met"
